# Tested on: MES-SA/MX2 cells
# Measurement notes: Cytotoxicity in panel of MDR cell lines, MES-SA/MX2 (72 h and 144 h)
# Type: cell-based, human
# Condition parameters: Homo sapiens, 72 h incubation, read-out: MES-SA/MX2 IC50 72 h
Collected log10 IC50 values appear next to each entry.
Scale type: logarithmic (base 10). Underlying IC50 unit: pM.

CCCCCON(C(=O)[C@@H](NC(=O)[C@H]1CCCCN1C)[C@@H](C)CC)[C@H](C[C@@H](OC(C)=O)c1nc(C(=O)N[C@@H](Cc2ccc(N)cc2)CC(C)(C)C(=O)O)cs1)C(C)C; 2.33
CCCCCCN(C(=O)[C@@H](NC(=O)[C@H]1CCCCN1C)[C@@H](C)CC)[C@H](C[C@@H](OC(C)=O)c1nc(C(=O)NC(Cc2ccc(F)c(NC)c2)CC(C)(C)C(=O)O)cs1)C(C)C (some centres unmarked); 2.65
[2H]c1cc(C[C@@H](CC(C)(C)C(=O)O)NC(=O)c2csc([C@@H](C[C@H](C(C)C)N(CCCCCC)C(=O)[C@@H](NC(=O)[C@H]3CCCCN3C)[C@@H](C)CC)OC(C)=O)n2)cc([2H])c1N; 2.01
CC[C@H](C)[C@H](NC(=O)[C@H]1CCCCN1C)C(=O)N(CCCCc1cn(Cc2ccccc2)nn1)[C@H](C[C@@H](OC(C)=O)c1nc(C(=O)N[C@@H](Cc2ccc(N)cc2)CC(C)(C)C(=O)O)cs1)C(C)C; 3.05

# input for lookup
Value lookup for log10 IC50; key = `C#CCCCCN(C(=O)[C@@H](NC(=O)[C@H]1CCCCN1C)[C@@H](C)CC)[C@H](C[C@@H](OC(C)=O)c1nc(C(=O)N[C@@H](Cc2ccc(F)cc2)C[C@H](C)C(=O)O)cs1)C(C)C`
2.90

====

# System: H69AR cells
# Measurement notes: Cytotoxicity in panel of MDR cell lines, H69AR (72 h and 144 h)
# Format: cell-based, human
# Condition parameters: Homo sapiens, 144 h incubation, read-out: H69AR IC50 144 h
Collected pIC50 values appear next to each entry.
Convention used: pIC50 is expressed as -log10 of the molar concentration.

For orientation, consider the following solved cases.
C#CCCCON(C(=O)[C@@H](NC(=O)[C@H]1CCCCN1C)[C@@H](C)CC)[C@H](C[C@@H](OC(C)=O)c1nc(C(=O)N[C@@H](Cc2ccc(O)cc2)C[C@H](C)C(=O)O)cs1)C(C)C; 8.57
CCCCCON(C(=O)[C@@H](NC(=O)[C@H]1CCCCN1C)[C@@H](C)CC)[C@H](C[C@@H](OC(=O)NC)c1nc(C(=O)N[C@@H](Cc2ccc(N)cc2)CC(C)(C)C(=O)O)cs1)C(C)C; 8.76
CCCCCCN(C(=O)[C@@H](NC(=O)[C@H]1CCCCN1C)[C@@H](C)CC)[C@H](C[C@@H](OC(C)=O)c1nc(C(=O)NC(Cc2ccc(F)c(N)c2)CC(C)(C)C(=O)O)cs1)C(C)C (stereo partly shown); 8.98
C#CCCCCN(C(=O)[C@@H](NC(=O)[C@H]1CCCCN1C)[C@@H](C)CC)[C@H](C[C@@H](OC(C)=O)c1nc(C(=O)N[C@@H](Cc2ccc(F)cc2)C[C@H](C)C(=O)O)cs1)C(C)C; 8.90
C#CCCCON(C(=O)[C@@H](NC(=O)[C@H]1CCCCN1C)[C@@H](C)CC)[C@H](C[C@@H](OC(C)=O)c1nc(C(=O)N[C@@H](Cc2ccccc2)CC(C)(C)C(=O)O)cs1)C(C)C; 9.54
C#CCCCON(C(=O)[C@@H](NC(=O)[C@H]1CCCCN1C)[C@@H](C)CC)[C@H](C[C@@H](OC(C)=O)c1nc(C(=O)N[C@@H](Cc2ccc(N)cc2)C[C@H](C)C(=O)O)cs1)C(C)C; 8.38
CCCCCCN(C(=O)[C@@H](NC(=O)[C@H]1CCCCN1C)[C@@H](C)CC)[C@H](C[C@@H](OC(C)=O)c1nc(C(=O)N[C@@H](Cc2ccc(N)cc2)CC(C)(C)C(=O)O)cs1)C(C)C; 9.89
CCCCCCN(C(=O)[C@@H](NC(=O)[C@H]1CCCCN1C)[C@@H](C)CC)[C@H](C[C@@H](OC(C)=O)c1nc(C(=O)N[C@@H](Cc2ccc(N)c(F)c2)CC(C)(C)C(=O)O)cs1)C(C)C; 9.80

Value lookup for pIC50; key = `C#CCCCCN(C(=O)[C@@H](NC(=O)[C@H]1CCCCN1C)[C@@H](C)CC)[C@H](C[C@@H](OC(C)=O)c1nc(C(=O)N[C@@H](Cc2ccc(F)cc2)CC(C)(C)C(=O)O)cs1)C(C)C`
9.14

This collection of values is drawn from patent US12144864B2.
